Taken from patent US6875761B2.

- Study System: serotonin 1A receptor (Rattus norvegicus)
- Construct: To the receptor fraction of the hippocampus were added a test compound and 0.5 nM of [^3H]; 8-hydroxy-dipropylaminotetralin; from tissue; host or cells: rat hippocampus membrane fraction
- Sequence (P19327 whole entry): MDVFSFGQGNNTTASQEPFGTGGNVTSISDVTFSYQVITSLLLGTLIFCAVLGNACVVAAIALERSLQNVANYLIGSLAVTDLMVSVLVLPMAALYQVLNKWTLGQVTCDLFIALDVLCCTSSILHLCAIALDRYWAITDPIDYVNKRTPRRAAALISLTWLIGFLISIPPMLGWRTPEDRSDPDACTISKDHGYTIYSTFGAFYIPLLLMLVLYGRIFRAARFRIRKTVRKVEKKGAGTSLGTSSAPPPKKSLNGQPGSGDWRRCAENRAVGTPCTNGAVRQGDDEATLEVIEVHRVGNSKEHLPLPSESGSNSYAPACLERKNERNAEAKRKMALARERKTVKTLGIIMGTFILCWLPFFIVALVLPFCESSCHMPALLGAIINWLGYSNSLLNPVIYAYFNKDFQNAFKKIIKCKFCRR
- Measurement Notes: Binding test on [3H] 8-hydroxy-dipropylaminotetralin, hippocampus receptor fraction
- Set-up: species or system SD rats
- Reported Conditions: rat hippocampus receptor fraction, 0.5 nM [3H] 8-OH-DPAT, room temperature 30 min; read-out: 5HT1
pKi: −log10 of the molar value. Where a name gives a salt, the structure may show the parent alone.
Observable: pKi

Study these solved cases before continuing.
• CCN1CCN(c2nc(-c3ccc4c(c3)OCO4)cc3ccccc23)CC1 [Example 46, Hydrochloride] = 7.24
• CCN1CCN(c2nc(CCCCOCc3ccccc3)cc3ccccc23)CC1 [Example 1, Dihydrochloride] = 7.67
• CCN1CCN(c2nc(-c3ccc(/C=N\O)cc3)cc3ccccc23)CC1.Cl [Example 60, Hydrochloride] = 7.67

I = CCN1CCN(c2nc(-c3cccc(OCCO)c3)cc3ccsc23)CC1 [Example 258, Dihydrochloride]
II = CCN1CCN(c2nc(-c3ccc(C#CCO)cc3)cc3sccc23)CC1 [Example 464]
III = CCN1CCN(c2nc(-c3ccc(N4CCN(C(C)=O)CC4)nc3)cc3ccccc23)CC1 [Example 99, Trihydrochloride]
Prompt line: Provide the items ranked by increasing pKi. Please respond by ranking the labels in the order requested.
Response line: II, I, III
(II: 7.32, I: 7.61, III: 8.46)

a = CCN1CCN(c2nc(/C=C/c3ccc(S(C)(=O)=O)cc3)cc3ccccc23)CC1 [Example 201, Hydrochloride]
b = CCCCNC(=O)Cc1ccc(-c2cc3ccccc3c(N3CCN(CC)CC3)n2)cc1 [Example 89, Hydrochloride]
c = CCN1CCN(c2nc(/C=C/c3cncc(N4CCOCC4)n3)cc3ccccc23)CC1 [Example 216, oxalate]
Prompt line: Ranking field: pKi; order: falling. Reply format: the labels, ordered as requested.
Response line: b, c, a
(b: 8.20, c: 7.78, a: 7.44)

1 = CN1CCN(c2nc(-c3ccc(OCCO)cc3)cc3sccc23)CC1 [Example 279, hydrochloride]
2 = CCN1CCN(c2nc(/C=C/c3ccccc3OCCO)cc3ccccc23)CC1 [Example 194, Oxalate]
3 = CCN1CCN(c2nc(-c3ccc(N4CCOCC4)nc3)cc3ccsc23)CC1 [Example 263, Hydrochloride]
4 = CCN1CCN(c2nc(-c3ccc(CO)c(F)c3)cc3ccccc23)CC1 [Example 28, hydrochloride]
Prompt line: Put these in order: smallest pKi first, largest last. Put the labels in the requested order and write them down.
Response line: 1, 4, 2, 3

a = CCN1CCN(c2nc(-c3ccc(CC4CCOCC4)cc3)cc3ccccc23)CC1 [Example 399, Dihydrochloride]
b = CCN1CCN(c2nc(/C=C/c3ccccc3S(C)(=O)=O)cc3ccccc23)CC1.Cl [Example 202, Hydrochloride]
Prompt line: For the pair a and b , which member has the lower pKi number? Provide the label of your selected option as the answer.
Response line: a
(a: 7.28, b: 7.84)
